src = patent US20240369485A1

procedure summary: Calcium (Ca^2+) binding assay: fluorescence/absorbance titration of purified protein
condition label: EGFP and mApple variants
// NB: equality with 2 counts as not fulfilled; only Fmax/Fmin strictly below is fulfilled

INSERT INTO results (molecule, qualitative_label) VALUES
  ('mApple K198D/R216D: mApple variant, SEQ ID NO: 24 (protein) EENNMAIIKEFMRFKVHMEGSVNGHEFEIEGEGEGRPYEAFQTAKLKVTKGGPLPFAWDILSPQFMYGSKVYIKHPADIPDYFKLSFPEGFRWERVMNFEDGGIIHVNQDSSLQDGVFIYKVKLRGTNFPSDGPVMQKKTMGWEASEERMYPEDGALKSEIKKRLKLKDGGHYAAEVKTTYKAKKPVQLPGAYIVDIDLDIVSHNEDYTIVEQYEDAEGRHSTGGMDELYK', 'not fulfilled'),
  ('mApple K198D: mApple variant, SEQ ID NO: 23 (protein) EENNMAIIKEFMRFKVHMEGSVNGHEFEIEGEGEGRPYEAFQTAKLKVTKGGPLPFAWDILSPQFMYGSKVYIKHPADIPDYFKLSFPEGFRWERVMNFEDGGIIHVNQDSSLQDGVFIYKVKLRGTNFPSDGPVMQKKTMGWEASEERMYPEDGALKSEIKKRLKLKDGGHYAAEVKTTYKAKKPVQLPGAYIVDIDLDIVSHNEDYTIVEQYERAEGRHSTGGMDELYK', 'fulfilled'),
  ('mApple A145E/K198E/R216E: mApple variant, SEQ ID NO: 30 (protein) EENNMAIIKEFMRFKVHMEGSVNGHEFEIEGEGEGRPYEAFQTAKLKVTKGGPLPFAWDILSPQFMYGSKVYIKHPADIPDYFKLSFPEGFRWERVMNFEDGGIIHVNQDSSLQDGVFIYKVKLRGTNFPSDGPVMQKKTMGWEESEERMYPEDGALKSEIKKRLKLKDGGHYAAEVKTTYKAKKPVQLPGAYIVDIELDIVSHNEDYTIVEQYEEAEGRHSTGGMDELYK', 'not fulfilled'),
  ('mApple A145D/E147D/K198D/R216E: mApple variant, SEQ ID NO: 28 (protein) EENNMAIIKEFMRFKVHMEGSVNGHEFEIEGEGEGRPYEAFQTAKLKVTKGGPLPFAWDILSPQFMYGSKVYIKHPADIPDYFKLSFPEGFRWERVMNFEDGGIIHVNQDSSLQDGVFIYKVKLRGTNFPSDGPVMQKKTMGWEDSDERMYPEDGALKSEIKKRLKLKDGGHYAAEVKTTYKAKKPVQLPGAYIVDIDLDIVSHNEDYTIVEQYEEAEGRHSTGGMDELYK', 'not fulfilled'),
  ('mApple: red fluorescent scaffold protein, SEQ ID NO: 11 (protein) EENNMAIIKEFMRFKVHMEGSVNGHEFEIEGEGEGRPYEAFQTAKLKVTKGGPLPFAWDILSPQFMYGSKVYIKHPADIPDYFKLSFPEGFRWERVMNFEDGGIIHVNQDSSLQDGVFIYKVKLRGTNFPSDGPVMQKKTMGWEASEERMYPEDGALKSEIKKRLKLKDGGHYAAEVKTTYKAKKPVQLPGAYIVDIKLDIVSHNEDYTIVEQYERAEGRHSTGGMDELYK', 'fulfilled');
